Give IC50 for every item shown.
Target: HCV polymerase (NS5B) type 1a (Hepatitis C virus genotype 1a, UniProt P26664)
Construct: made in house; host or cells: Escherichia coli (by the 'similar method' of the 1b enzyme)
Assay: Assay of enzyme (HCV polymerase) inhibitory activity, type 1a enzyme
Type: biochemical, HCV type 1a (cloned from the blood of patients)
Settings: HCV polymerase inhibitory activity (IC50), 1a, type 1a enzyme 1.5 μg/ml, 25° C., 60 min

q: Identify measured IC50 obtained with HCV polymerase (NS5B) type 1a (Hepatitis C virus genotype 1a, UniProt P26664) for CC(C)(C)c1ccc(CNC(=O)[C@H]2CN(c3nc4c(s3)C(=O)NC4=O)CCN2S(=O)(=O)c2ccc(OC(F)(F)F)cc2)cc1 [Example 573] .
a: < 100 nM

q: Look up and report IC50, with HCV polymerase (NS5B) type 1a (Hepatitis C virus genotype 1a, UniProt P26664) as system, for CCc1ccc(CNC(=O)[C@H]2CN(c3nc(C)c(C(=O)O)s3)CCN2S(=O)(=O)c2ccc(OC(F)(F)F)cc2)cc1 [Example 366]
a: < 100 nM

q: Give reported IC50 for O=C(NCc1ccc(Br)cc1)[C@H]1CN(c2cnc3cncnc3n2)CCN1S(=O)(=O)c1ccc(OC(F)(F)F)cc1 [Example 653] (HCV polymerase (NS5B) type 1a (Hepatitis C virus genotype 1a, UniProt P26664))
a: < 100 nM

q: Look up and report measured IC50 (HCV polymerase (NS5B) type 1a (Hepatitis C virus genotype 1a, UniProt P26664)) for the following compound: CC(=O)N1CCN(S(=O)(=O)c2ccc(OCC(=O)O)cc2)[C@@H](C(=O)NCc2ccc(C(C)C)cc2)C1 [Example 249]
a: > 1000 nM

###

Answer each item with its documented pIC50.
Molecular target: HCV polymerase (NS5B) type 1a (Hepatitis C virus genotype 1a, UniProt P26664)
Construct: made in house; host or cells: Escherichia coli (by the 'similar method' of the 1b enzyme)
Assay: Assay of enzyme (HCV polymerase) inhibitory activity, type 1a enzyme
Assay type: biochemical, HCV type 1a (cloned from the blood of patients)
Conditions: HCV polymerase inhibitory activity (IC50), 1a, type 1a enzyme 1.5 μg/ml, 25° C., 60 min
Description: The evaluation of the HCV polymerase inhibitory activity of the compound of the present invention is explained in the following. This polymerase is an enzyme coded for by the non-structural protein region called NS5B on the genome RNA of HCV. i) Preparation of Enzyme (HCV Polymerase) […] The HCV polymerase inhibitory activity (IC50) of the compound of the present invention was calculated from the values of radioactivity of the enzyme reaction with and without the test substance. […]
pIC50: −log10 of the molar value.

q: Report pIC50, nothing else, for this molecule: CC(C)c1ccc(CNC(=O)[C@H]2CN(c3cnc(C(=O)O)c(N)n3)CCN2S(=O)(=O)c2ccc(C(F)(F)F)cc2)cc1
a: 6.00 to 7.00

q: Return the recorded pIC50 value; entry: CCC(F)(F)c1ccc(CNC(=O)[C@H]2CN(C(=O)Nc3nnc(C(=O)N4CC[C@@H](O)C4)s3)CCN2S(=O)(=O)c2ccc(OC(F)(F)F)cc2)cc1
a: < 6.00

q: Given the molecule CC(=O)N1CCN(S(=O)(=O)c2ccc(Br)s2)C(C(=O)NCc2ccc(C(F)(F)F)cc2)C1 (stereo not drawn) , write its reported pIC50.
a: < 6.00

q: Answer with the recorded pIC50 for the molecule listed here: CC(=O)N1CCN(S(=O)(=O)c2ccc(C(C)C)cc2)[C@@H](C(=O)NCCc2ccc(C(=O)O)cc2)C1
a: < 6.00

q: Quote pIC50 reported for CCCc1ccc(S(=O)(=O)N2CCN(c3nc(C(=O)O)c(C)s3)C[C@@H]2C(=O)NCc2ccc(C(C)C)cc2)cc1 please.
a: > 7.00

q: Give the value of pIC50 reported for the following: CC(C)c1ccc(CNC(=O)[C@H]2CN(C(=O)Cn3ccnn3)CCN2S(=O)(=O)c2ccc(C(F)(F)F)cc2)cc1
a: > 7.00

q: Give me measured pIC50, please, for this molecule: COc1ccc(NC(=O)N2CCN(S(=O)(=O)c3ccc(C(F)(F)F)cc3)[C@@H](C(=O)NCc3ccc(C(C)C)cc3)C2)cc1
a: < 6.00

q: // Input: COc1ccc(S(=O)(=O)N2CCN(C(C)=O)C[C@@H]2C(=O)NCc2ccc(C(C)C)cc2)cc1C1CCCC1 . Output its pIC50 only.
a: 6.00 to 7.00

q: Give reported pIC50 value for CC(C)c1ccc(S(=O)(=O)N2CCN(C)CC2C(=O)NCc2ccc(C(F)(F)F)cc2)cc1 (stereo not drawn)
a: < 6.00

###

Molecular target: HCV polymerase (NS5B) type 1a (Hepatitis C virus genotype 1a, UniProt P26664)
Construct: made in house; host or cells: Escherichia coli (by the 'similar method' of the 1b enzyme)
Test: Assay of enzyme (HCV polymerase) inhibitory activity, type 1a enzyme
Assay type: biochemical, HCV type 1a (cloned from the blood of patients)
Conditions: HCV polymerase inhibitory activity (IC50), 1a, type 1a enzyme 1.5 μg/ml, 25° C., 60 min
MEASURE: IC50

q: Quickly give me recorded IC50 for CN(C)c1ccc(CNC(=O)C2CN(C(=O)CN3CCOCC3)CCN2S(=O)(=O)c2ccc(I)cc2)cc1 (stereo not shown) [Example 104]
a: > 1000 nM

q: Find the measured IC50 of CC(=O)N1CCN(S(=O)(=O)c2ccc(C(C)C)cc2)C(C(=O)NCc2ccc(OC(C)C)cc2)C1 (stereo not shown) [Example 127] and report it.
a: > 1000 nM

q: Given the compound CCC(F)(F)c1ccc(CNC(=O)[C@H]2CN(C(=O)Nc3ccnc(C(=O)N4CCOCC4)c3)CCN2S(=O)(=O)c2ccc(OC(F)(F)F)cc2)cc1 [Example 513] , write its reported IC50.
a: < 100 nM

q: Tell me its IC50 given Cc1nc(N2CCN(S(=O)(=O)c3ccc(OC(F)(F)F)cc3)[C@@H](C(=O)NCc3ccc(C(C)C)cc3)C2)sc1C(=O)N[C@@H](C)C(=O)O [Example 370] as the entry.
a: 100 to 1000 nM

q: Look up and state reported IC50 for CCCc1ccc(CNC(=O)[C@H]2CN(c3cnc(N)cn3)CCN2S(=O)(=O)c2ccc(OC(F)(F)F)cc2)cc1 [Example 530]
a: 100 to 1000 nM

q: State its IC50: CC(=O)N1CCN(S(=O)(=O)c2ccc(C(C)C)cc2)C(C(=O)NCc2ccccc2)C1 (stereo not shown) [Example 49]
a: > 1000 nM

q: Give reported IC50 value for CC(C)c1ccc(CNC(=O)[C@H]2CN(c3ccc(C(=O)O)nn3)CCN2S(=O)(=O)c2ccc(C(F)(F)F)cc2)cc1 [Example 376]
a: < 100 nM

q: Hello, please tell me recorded IC50 for this one: CCCc1ccc(CNC(=O)[C@H]2CN(c3nc(CC)c(C(=O)O)s3)CCN2S(=O)(=O)c2ccc(OC(F)(F)F)cc2)c(C)c1 [Example 363]
a: < 100 nM

q: Provide one value: measured IC50 of CC(C)c1ccc(CNC(=O)[C@H]2CN(C(=O)Cn3cnnc3)CCN2S(=O)(=O)c2ccc(C(F)(F)F)cc2)cc1 [Example 230]
a: < 100 nM

q: For the compound CC(=O)N1CCN(S(=O)(=O)c2ccc(OC(F)(F)F)cc2)[C@@H](C(=O)NCc2ccc(-c3cccs3)cc2)C1 [Example 623] , report IC50.
a: < 100 nM

q: State its IC50: CCc1ccc(CNC(=O)C2CN(C(C)=O)CCN2S(=O)(=O)c2ccc(C(C)C)cc2)cc1 (stereo not shown) [Example 144]
a: 100 to 1000 nM

q: Please give measured IC50 of the following entry: CCCc1ccc(CNC(=O)[C@H]2CN(c3ccncn3)CCN2S(=O)(=O)c2ccc(OC(F)(F)F)cc2)cc1 [Example 572]
a: < 100 nM

q: Consider the compound CC(=O)N1CCN(S(=O)(=O)c2ccc(OC(F)(F)F)cc2)[C@@H](C(=O)NCc2ccc(-c3ccccc3)s2)C1 [Example 614] . State its measured IC50.
a: 100 to 1000 nM

q: Provide IC50 value for the following compound: CC(=O)N1CCN(S(=O)(=O)c2ccc(C(C)C)cc2)C(C(=O)NCc2ccc(NC(=O)C(C)(C)C)cc2)C1 (stereo not shown) [Example 98]
a: > 1000 nM

q: Identify measured IC50 associated with CCCc1ccc(CNC(=O)[C@H]2CN(C(=O)Nc3nc(CCO)cs3)CCN2S(=O)(=O)c2ccc(OC(F)(F)F)cc2)cc1 [Example 476]
a: 100 to 1000 nM

q: Give IC50 for Cc1nc(N2CCN(S(=O)(=O)c3ccc(OC(F)(F)F)cc3)[C@@H](C(=O)NCc3ccc(C(C)(C)C)cc3)C2)sc1C#N [Example 577]
a: < 100 nM

q: For the compound CC(C)c1ccc(CNC(=O)[C@H]2CN(C(=O)C(N)=O)CCN2S(=O)(=O)c2ccc(C(F)(F)F)cc2)cc1 [Example 308] , report IC50.
a: > 1000 nM

q: Entry CC(=O)N1CCN(S(=O)(=O)c2ccc(OC(F)(F)F)cc2)[C@@H](C(=O)NCc2ccc(-c3cccs3)s2)C1 [Example 622] needs its IC50 filled in; supply it.
a: < 100 nM

q: Quickly give me recorded IC50 for CC(=O)N1CCN(S(=O)(=O)c2cccc(Br)c2)C(C(=O)NCc2ccc(C(F)(F)F)cc2)C1 (stereo not shown) [Example 165]
a: > 1000 nM

q: Input CCCc1ccc(S(=O)(=O)N2CCN(C(C)=O)CC2C(=O)NCc2ccc(C(F)(F)F)cc2)cc1 (stereo not shown) [Example 72] , output reported IC50.
a: > 1000 nM

q: Consider the compound CC(=O)N1CCN(S(=O)(=O)c2ccc(C(C)C)cc2)[C@@H](C(=O)NCc2ccc(Br)cc2Cl)C1 [Example 182] and give its recorded IC50.
a: 100 to 1000 nM

q: Find the measured IC50 of CCc1ccc(S(=O)(=O)N2CCN(c3cnc(C(=O)O)cn3)C[C@@H]2C(=O)NCc2ccc(C(F)(F)CC)cc2)cc1 [Example 564] and report it.
a: < 100 nM

Origin of values: patent US8017612B2
